target: IDH1 R132H (Homo sapiens, UniProt O75874, R132H); assay: In vitro NADPH depletion assay for IDH1m R132H inhibitors; conditions: enzyme, diaphorase/resazurin readout, read-out: IDH R132H IC50
Sequence (O75874 whole entry R132H): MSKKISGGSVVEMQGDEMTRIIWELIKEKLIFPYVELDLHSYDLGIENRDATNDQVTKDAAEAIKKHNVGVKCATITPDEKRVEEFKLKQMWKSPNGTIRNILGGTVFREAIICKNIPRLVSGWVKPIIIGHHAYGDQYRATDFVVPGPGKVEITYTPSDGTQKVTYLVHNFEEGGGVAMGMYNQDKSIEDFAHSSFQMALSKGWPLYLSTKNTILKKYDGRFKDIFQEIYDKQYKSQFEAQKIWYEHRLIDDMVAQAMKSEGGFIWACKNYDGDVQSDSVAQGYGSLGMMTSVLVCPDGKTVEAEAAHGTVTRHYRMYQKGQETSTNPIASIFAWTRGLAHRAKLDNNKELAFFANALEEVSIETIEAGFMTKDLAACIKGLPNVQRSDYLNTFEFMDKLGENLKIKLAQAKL
Readout kind: IC50

Would you please look over these solved cases?
compound="O=C(NC1CC(F)(F)C1)C(c1ccccc1Cl)N(C(=O)Cc1cccnc1)c1cccc(F)c1 (stereo not shown) [Compound 86]" reported="≤ 0.1 µM"
compound="COC(=O)N1C[C@@H](OC)C[C@H]1C(=O)N(c1cccc(F)c1)[C@H](C(=O)NC1CC(F)(F)C1)c1ccccc1Cl [Compound 63]" reported="≤ 0.1 µM"
compound="Cc1ccccc1C(C(=O)NC1CCCCC1)N(C(=O)CCNC(=O)OC(C)(C)C)c1cccc(F)c1 (stereo not shown) [Compound 8]" reported="0.5 to 1 µM"
compound="COC(=O)N1C[C@@H](F)C[C@H]1C(=O)N(c1cccc(F)c1)[C@H](C(=O)NC1CC(F)(F)C1)c1ccccc1Cl [Compound 70]" reported="≤ 0.1 µM"
compound="O=C(NC1CCCCC1)C(c1ccc(F)cc1F)N(C(=O)Cn1cnc(Cl)c1Cl)c1ccc(F)c(F)c1 (stereo not shown) [Compound 30]" reported="0.1 to 0.5 µM"

The compound O=C(NC1CCCCC1)C(c1ccccc1Cl)N(C(=O)C1CCc2ccccc2N1)c1cccc(F)c1 (stereo not shown) [Compound 31] on IDH1 R132H (Homo sapiens, UniProt O75874, R132H): IC50 was ≤ 0.1 µM

The compound COC(=O)N1CCC[C@H]1C(=O)N(c1cccc(F)c1)[C@H](C(=O)NC1CC(F)(F)C1)c1ccccc1Cl [Compound 42] on IDH1 R132H (Homo sapiens, UniProt O75874, R132H): IC50 was ≤ 0.1 µM

The compound Cc1ccccc1C(C(=O)NC1CCCCC1)N(C(=O)CNC(=O)OC(C)(C)C)c1cccc(F)c1 (stereo not shown) [Compound 7] on IDH1 R132H (Homo sapiens, UniProt O75874, R132H): IC50 was 0.5 to 1 µM

The compound CNS(=O)(=O)c1cccc(N(C(=O)[C@@H]2CCCN2C(=O)OC)[C@H](C(=O)NC2CC(F)(F)C2)c2ccccc2Cl)c1 [Compound 58] on IDH1 R132H (Homo sapiens, UniProt O75874, R132H): IC50 was 0.1 to 0.5 µM

The compound CC(=O)N1CCC[C@@H]1C(=O)N(c1cccc(F)c1)[C@H](C(=O)NC1CCCCC1)c1ccccc1C [Compound 10] on IDH1 R132H (Homo sapiens, UniProt O75874, R132H): IC50 was 0.1 to 0.5 µM

The compound COC(=O)N1[C@H](C(=O)N(c2cccc(F)c2)[C@H](C(=O)NC2CC(F)(F)C2)c2ccccc2Cl)CCC1(C)C (single isomer, unassigned) [Compound 115] on IDH1 R132H (Homo sapiens, UniProt O75874, R132H): IC50 was 0.1 to 0.5 µM

The compound COC(=O)N1C[C@H](N)C[C@H]1C(=O)N(c1cccc(F)c1)[C@H](C(=O)NC1CC(F)(F)C1)c1ccccc1Cl [Compound 65] on IDH1 R132H (Homo sapiens, UniProt O75874, R132H): IC50 was 0.1 to 0.5 µM

###

target: IDH1 R132H (Homo sapiens, UniProt O75874, R132H); assay: In vitro NADPH depletion assay for IDH1m R132H inhibitors; conditions: enzyme, diaphorase/resazurin readout, read-out: IDH R132H IC50
pIC50: −log10 of the molar value.
Readout kind: pIC50

Would you please look over these solved cases?
molecule=Cc1ccccc1[C@@H](C(=O)NC1CCCCC1)N(C(=O)[C@H]1CCCN1)c1cccc(F)c1 reported="6.00 to 6.30"
molecule=C[C@H]1CC[C@@H](C(=O)N(c2cccc(F)c2)[C@@H](C(=O)NC2CCC(F)(F)CC2)c2ccccc2Cl)N1c1ncccn1 reported="≥ 7.00"
molecule=COC(=O)N1C[C@H](OCCO)C[C@H]1C(=O)N(c1cccc(F)c1)[C@H](C(=O)NC1CC(F)(F)C1)c1ccccc1Cl reported="≥ 7.00"

// pIC50 value for O=C(NC1CCC(F)(F)CC1)C(c1ccccc1Cl)N(C(=O)Cn1ccnn1)c1cccc(F)c1 (stereo not drawn) : 6.30 to 7.00

// pIC50 value for CCS(=O)(=O)NCC(=O)N(c1cccc(F)c1)C(C(=O)NC1CCCCC1)c1ccccc1C (stereo not drawn) : 6.30 to 7.00

// pIC50 value for COC(=O)N1C[C@H](F)C[C@H]1C(=O)N(c1cccc(F)c1)[C@H](C(=O)NC1CC(F)(F)C1)c1ccccc1Cl : ≥ 7.00
